Data credit: patent US20240327509A1

# pKd listing for each entry below
# experimental.target: T1, Recombinant human CXCL16 (rhCXCL16) protein (human, UniProt Q9H2A7 30-118, limits assumed)
# T1 construct: Bought recombinant protein (976-CX, R&D systems); also called CXCL16 antigen; 976-CX (R&D systems)
# T1 sequence: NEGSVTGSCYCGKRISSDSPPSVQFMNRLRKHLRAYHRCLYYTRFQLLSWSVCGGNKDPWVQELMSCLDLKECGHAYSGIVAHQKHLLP
# procedure.text: BLI (ForteBio), antibody captured on biosensor, rhCXCL16 in solution, 25 C
Please treat pKd as minus the base-10 logarithm of the molar concentration.

Some entries whose results are on file:
binder | pKd
HC5LC2 (antibody, human IgG1, kappa, V domains shown, Humanized; human IgG1 / kappa constant domains; also called HCSLC2; humanized CXCL16 antibody HC5LC2) VH: EVQLVESGGGLVQPGGSLKLSCAASGFTFSNAVMNWVRQASGKGLEWVARIRTKPNNYATFYADSVKGRFTFSRDDSKNTAYLQMNSLKTEDTAMYYCTAWTTEGIYWGQGTLVTVSS VL: DIVMTQSPSSLAVSLGETATINCKSSQSLLYSGNQKNYLAWYQQKPGQPPKLLIYWASTRQSGVPDRFTGSGAGTDFTLTISSVQAEDLAIYYCQQYYDTPWTFGGGTKVEIKR | 8.60
HC4LC1 (antibody, human IgG1, kappa, V domains shown, Humanized; human IgG1 / kappa constant domains; also called humanized CXCL16 antibody HC4LC1) VH: EVQLVESGGGLVKPGGSLRLSCAASGFTFSNAVMNWVRQAPGKGLEWVARIRTKPNNYATFYADSVKGRFTFSRDDSKNTLYLQMNSLKTEDTAVYYCTAWTTEGIYWGQGTTVTVSS VL: DIVMTQSPDSLAVSAGETVTINCKSSQSLLYSGNQKNYLAWYQQKPGQSPKLLIYWASTRQSGVPDRFSGSGSGTDFTLTISSVQAEDVAVYYCQQYYDTPWTFGGGTKVEIKR | 8.96
HC5LC1 (antibody, human IgG1, kappa, V domains shown, Humanized; human IgG1 / kappa constant domains; also called HCSLC1; humanized CXCL16 antibody HC5LC1) VH: EVQLVESGGGLVQPGGSLKLSCAASGFTFSNAVMNWVRQASGKGLEWVARIRTKPNNYATFYADSVKGRFTFSRDDSKNTAYLQMNSLKTEDTAMYYCTAWTTEGIYWGQGTLVTVSS VL: DIVMTQSPDSLAVSAGETVTINCKSSQSLLYSGNQKNYLAWYQQKPGQSPKLLIYWASTRQSGVPDRFSGSGSGTDFTLTISSVQAEDVAVYYCQQYYDTPWTFGGGTKVEIKR | 8.49

We next turn to a different binder, shown below.
Quick check: pKd of HC5LC3 (antibody, human IgG1, kappa, V domains shown, Humanized; human IgG1 / kappa constant domains; also called HCSLC3; humanized CXCL16 antibody HC5LC3) VH: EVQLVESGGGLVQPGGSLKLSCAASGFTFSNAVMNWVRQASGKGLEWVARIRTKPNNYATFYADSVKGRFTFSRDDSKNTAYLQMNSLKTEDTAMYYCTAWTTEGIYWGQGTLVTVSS VL: DIQMTQSPSSLSASVGDRVTITCKSSQSLLYSGNQKNYLAWYQQKPGQSPKLLIYWASTRQSGVPDRFSGSGSGTDFTLTISSLQAEDFATYYCQQYYDTPWTFGGGTKVEIKR ?
8.84
